Measured recombinant barcode read abundance (log10) by item
test: recombinant barcode read abundance after kanamycin selection (control-corrected) (log10(CPM+1)); higher = more efficient recombination; sequences stand for … in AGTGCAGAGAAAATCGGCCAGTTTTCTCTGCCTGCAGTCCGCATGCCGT…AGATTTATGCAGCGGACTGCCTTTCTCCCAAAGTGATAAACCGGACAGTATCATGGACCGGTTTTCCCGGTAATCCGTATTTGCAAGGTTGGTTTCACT; site = the 11-nt target;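 further: IS621 recombinase and bridge RNA in Escherichia coli cells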

> print(dat)
                              sequence.data  recorded.measurement
1  CTGGCAGCTTGGGTTCTAACCTGTTGCCT (site ACAAACCCTTA)                 0.241
2  AGCTAAACTTGGGTTCTAACCTGTTGCCT (site AGCTAAACTAG)                 0.256
3  TTGGATACTTGGGTTCTAACCTGTTGCCA (site TTGGATACTTG)                  1.04
4  ATGGGCCCTTGGGTTCTAACCTGTTGCTA (site ATGGGCCCTTA)                  2.17
5  CATTCCTCTTGGGTTCTAACCTGTTGCCT (site CATTCCTCTAG)                0.0779

Ask: For GATGCCTCTTGGGTTCTAACCTGTTGCCT (site GATGCCTCTAG) , what is its reported recombinant barcode read abundance (log10)?
Reply: 2.06

Ask: Also, TACGCCTCTTGGGTTCTAACCTGTTGCCT (site CACGCCTCTAG) please.
Reply: 0.164

Ask: Another sequence: TTCGCGCCTTGGGTTCTAACCTGTTGCCT (site TTCGCGCCTAG)
Reply: 0.134

Ask: Please do the same for CCTGGACCTTGGGTTCTAACCTGTTGCGT (site CCTGGGCCTAA) as well.
Reply: 0.0265

Ask: Try GGACCCTCTTGGGTTCTAACCTGTTGCAC (site TACAAGACTAC) next.
Reply: 0.0797

###

test: recombinant barcode read abundance after kanamycin selection (control-corrected) (log10(CPM+1)); higher = more efficient recombination; sequences stand for … in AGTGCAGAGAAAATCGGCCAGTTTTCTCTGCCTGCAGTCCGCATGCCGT…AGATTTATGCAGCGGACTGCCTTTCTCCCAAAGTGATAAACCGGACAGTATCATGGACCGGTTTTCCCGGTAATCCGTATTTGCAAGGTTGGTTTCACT; site = the 11-nt target
OUTCOME_MEASURE: recombinant barcode read abundance (log10)
Keep the answer to the number alone.

> print(dat)
                              sequence.data  recorded.measurement
1  ATGCCTACTTGGGTTCTAACCTGTTGCCT (site ATGCCAACTAG)                0.0174

Ask: Could you share which recombinant barcode read abundance (log10) value was measured for ACGGCGCCTTGGGTTCTAACCTGTTGCCT (site AGGGCGCCTAG) ?
Reply: 0.101

Ask: Now this one: CCATCTCCTTGGGTTCTAACCTGTTGCCT (site ACATCTCCTAG)
Reply: 0.0982

Ask: What do you have for CAGTAGTCTTGGGTTCTAACCTGTTGCCT (site CAGTAGTCTAG) ?
Reply: 1.07

Ask: Same thing, different sequence: ACTAGTCCTTGGGTTCTAACCTGTTGCTT (site ACTAGTCCTAT)
Reply: 0.316

Ask: And the next one, AGGATCCCTTGGGTTCTAACCTGTTGCAT (site AGGATCCCTCT) ?
Reply: 1.07

Ask: Now try ATGGTGACTTGGGTTCTAACCTGTTGCCT (site ATGGTGACTAG) .
Reply: 1.21

Ask: Cool, now ATTAACCCTTGGGTTCTAACCTGTTGCCT (site ATTAACCCTAG)
Reply: 1.21

Ask: Same lookup for TGAGCGGCTTGGGTTCTAACCTGTTGCCT (site TGAGAGGCTAG) , please.
Reply: 0.143

Ask: Now this one: CTATTTACTTGGGTTCTAACCTGTTGCCT (site CTAGTTACTAG)
Reply: 0.19
